Tested Target: UniProt P61073
Test Details: Competitive receptor binding assay on Jurkat cells with 125I-CPCR4 as tracer
Parameters: Jurkat cells that endogenously express the CXCR4 receptor; endogenous in cells; host or cells: Jurkat cells
Assay Setup: Table 10, dimers and monomers; read-out: IC50
Bridge positions count the residues as written; N and C are the ends. Square brackets hold non-standard residues; d marks the D form. Peptide text beside a SMILES is read from it. I, II: the chains in the order shown. * marks the point of attachment. C16 diacid = O=C(O)CCCCCCCCCCCCCCC(=O)*; 2Nal = N[C@@H](Cc1ccc2ccccc2c1)C(=O)O; dNMeOrn = CN[C@H](CCCN)C(=O)O
Quantity Name: IC50 (nM)
Your answer should be a plain number; it is taken to be in nM.

**Q:** State its IC50 for this molecule: CN1C(=O)[C@@H](Cc2ccc(O)cc2)NC(=O)CNC(=O)[C@H](Cc2ccc3ccccc3c2)NC(=O)[C@H](CCCNC(=N)N)NC(=O)[C@H]1CCCNC(=O)CNC(=O)C[C@H](NC(=O)CCCCCNC(=O)CN1CCN(CC(=O)O)CCN(CC(=O)O)CCN(CC(=O)O)CC1)C(=O)NCC(=O)NCCC[C@@H]1C(=O)N[C@@H](CCCNC(=N)N)C(=O)N[C@@H](Cc2ccc3ccccc3c2)C(=O)NCC(=O)N[C@H](Cc2ccc(O)cc2)C(=O)N1C
**A:** 38

New cases:
**Q:** State its IC50 for this molecule: CN1C(=O)[C@@H](Cc2ccc(O)cc2)NC(=O)CNC(=O)[C@H](Cc2ccc3ccccc3c2)NC(=O)[C@H](CCCNC(=N)N)NC(=O)[C@H]1CCCNC(=O)CCCCCCCCCCCCCCC(=O)NCCC[C@@H]1C(=O)N[C@@H](CCCNC(=N)N)C(=O)N[C@@H](Cc2ccc3ccccc3c2)C(=O)NCC(=O)N[C@H](Cc2ccc(O)cc2)C(=O)N1C [NMe-D-Orn n = 14] (I: cyclo([2Nal]G[dY][dNMeOrn]R) / II: cyclo([2Nal]G[dY][dNMeOrn]R); linker I:4-II:4 via C16 diacid (inferred); ring closure inferred)
**A:** 33.5

* * *

IC50 values, listed per item
Tested Target: UniProt P61073
Test Details: Competitive receptor binding assay on Jurkat cells with 125I-CPCR4 as tracer
Set-up: Jurkat cells that endogenously express the CXCR4 receptor; endogenous in cells; host or cells: Jurkat cells
Assay Setup: Table 10, dimers and monomers; read-out: IC50
Method: For receptor binding assays cells were resuspended in PBS/0.2% BSA. […] Cell bound radioactivity was determined by using a gamma counter. […] IC50 values of the compounds were calculated by nonlinear regression using GraphPad Prism (GraphPad Prism 4.0 Software, Inc., San Diego, Calif., USA). […]
Numbered stars: 1 amine (or outer) side, 2 acyl side, 3 side chain; on linkers, the order of the positions; unused ones are H or OH. Bridge positions count the residues as written; N and C are the ends. Square brackets hold non-standard residues; d marks the D form. Peptide text beside a SMILES is read from it. I, II: the chains in the order shown. 2Nal = N[C@@H](Cc1ccc2ccccc2c1)C(=O)O; Adipoyl = O=C(CCCCC(=O)[*:2])[*:1]; dNMeOrn = CN[C@H](CCCN)C(=O)O; Suc = O=C(CCC(=O)[*:2])[*:1]

**Q:** Retrieve IC50 on UniProt P61073; query CN1C(=O)[C@@H](Cc2ccc(O)cc2)NC(=O)CNC(=O)[C@H](Cc2ccc3ccccc3c2)NC(=O)[C@H](CCCN=C(N)N)NC(=O)[C@H]1CCCNC(=O)CNC(=O)CC(=O)NCC(=O)NCCC[C@@H]1C(=O)N[C@@H](CCCN=C(N)N)C(=O)N[C@@H](Cc2ccc3ccccc3c2)C(=O)NCC(=O)N[C@H](Cc2ccc(O)cc2)C(=O)N1C [NMe-D-Orn + Gly n = 1]
**A:** 5.48 nM

**Q:** Retrieve IC50 on UniProt P61073; query CN1C(=O)[C@@H](Cc2ccc(O)cc2)NC(=O)CNC(=O)[C@H](Cc2ccc3ccccc3c2)NC(=O)[C@H](CCCNC(=N)N)NC(=O)[C@H]1CCCNC(=O)C[C@H](NC(=O)CCCCCNC(=O)CN1CCN(CC(=O)O)CCN(CC(=O)O)CCN(CC(=O)O)CC1)C(=O)NCCC[C@@H]1C(=O)N[C@@H](CCCNC(=N)N)C(=O)N[C@@H](Cc2ccc3ccccc3c2)C(=O)NCC(=O)N[C@H](Cc2ccc(O)cc2)C(=O)N1C [NMe-D-Orn InDOTAAhxAsp]
**A:** 37.9 nM

**Q:** Retrieve IC50 on UniProt P61073; query CN1C(=O)[C@@H](Cc2ccc(O)cc2)NC(=O)CNC(=O)[C@H](Cc2ccc3ccccc3c2)NC(=O)[C@H](CCCN=C(N)N)NC(=O)[C@H]1CCCNC(=O)CCCCC(=O)NCCC[C@@H]1C(=O)N[C@@H](CCCN=C(N)N)C(=O)N[C@@H](Cc2ccc3ccccc3c2)C(=O)NCC(=O)N[C@H](Cc2ccc(O)cc2)C(=O)N1C [NMe-D-Orn n = 4] (I: cyclo([2Nal]G[dY][dNMeOrn]R) / II: cyclo([2Nal]G[dY][dNMeOrn]R); linker I:4-II:4 via Adipoyl)
**A:** 3.65 nM

New cases:
**Q:** Retrieve IC50 on UniProt P61073; query CN1C(=O)[C@@H](Cc2ccc(O)cc2)NC(=O)CNC(=O)[C@H](Cc2ccc3ccccc3c2)NC(=O)[C@H](CCCNC(=N)N)NC(=O)[C@H]1CCCNC(=O)C[C@H](NC(=O)CCCCCNC(=O)CN1CCN(CC(=O)O)CCN(CC(=O)O)CCN(CC(=O)O)CC1)C(=O)NCCC[C@@H]1C(=O)N[C@@H](CCCNC(=N)N)C(=O)N[C@@H](Cc2ccc3ccccc3c2)C(=O)NCC(=O)N[C@H](Cc2ccc(O)cc2)C(=O)N1C [NMe-D-Orn DOTAAhxAsp]
**A:** 92.1 nM

**Q:** Retrieve IC50 on UniProt P61073; query CN1C(=O)[C@@H](Cc2ccc(O)cc2)NC(=O)CNC(=O)[C@H](Cc2ccc3ccccc3c2)NC(=O)[C@H](CCCNC(=N)N)NC(=O)[C@H]1CCCNC(=O)CCC(=O)NCCC[C@@H]1C(=O)N[C@@H](CCCNC(=N)N)C(=O)N[C@@H](Cc2ccc3ccccc3c2)C(=O)NCC(=O)N[C@H](Cc2ccc(O)cc2)C(=O)N1C [NMe-D-Orn n = 2] (I: cyclo([2Nal]G[dY][dNMeOrn]R) / II: cyclo([2Nal]G[dY][dNMeOrn]R); linker I:4-II:4 via Suc)
**A:** 6.61 nM

* * *

Tested Target: human CXCR4 (Homo sapiens)
Test Details: Competitive receptor binding assay on Jurkat cells with 125I-CPCR4 as tracer
Parameters: Jurkat cells that endogenously express the CXCR4 receptor; endogenous in cells; host or cells: Jurkat cells
Assay Setup: Table 10, dimers and monomers; read-out: IC50
Quantity Name: pIC50
API: returns pIC50 as number; meaning -log10 of concentration in mol/L.

**Q:** State its pIC50 for this compound: N=C(N)NCCC[C@@H]1NC(=O)[C@H](CCCNC(=O)CON=CCCCC=NOCC(=O)NCCC[C@@H]2NC(=O)[C@@H](Cc3ccc(O)cc3)NC(=O)CNC(=O)[C@H](Cc3ccc4ccccc4c3)NC(=O)[C@H](CCCNC(=N)N)NC2=O)NC(=O)[C@@H](Cc2ccc(O)cc2)NC(=O)CNC(=O)[C@H](Cc2ccc3ccccc3c2)NC1=O [Code A22]
**A:** 7.24

* * *

Tested Target: human CXCR4 (Homo sapiens, UniProt P61073)
Sequence (P61073 whole entry): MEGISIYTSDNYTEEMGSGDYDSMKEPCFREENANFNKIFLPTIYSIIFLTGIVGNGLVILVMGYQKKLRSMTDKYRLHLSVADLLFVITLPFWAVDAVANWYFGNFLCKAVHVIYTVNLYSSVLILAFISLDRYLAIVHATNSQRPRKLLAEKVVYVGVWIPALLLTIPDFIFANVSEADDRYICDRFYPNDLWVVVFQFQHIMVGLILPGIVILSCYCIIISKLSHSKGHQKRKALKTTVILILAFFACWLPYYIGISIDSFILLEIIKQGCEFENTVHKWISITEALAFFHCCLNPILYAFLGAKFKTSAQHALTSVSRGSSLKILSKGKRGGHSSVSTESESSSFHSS
Test Details: Competitive receptor binding assay on Jurkat cells with 125I-CPCR4 as tracer
Set-up: Jurkat cells that endogenously express the CXCR4 receptor; endogenous in cells; host or cells: Jurkat cells
Assay Setup: Table 1, Nα-monomethylated cyclic pentapeptides; read-out: IC50
Quantity Name: pIC50
API: returns pIC50 as number; meaning -log10 of concentration in mol/L.

**Q:** State its pIC50 for this compound: CN1C(=O)[C@@H](Cc2ccc(O)cc2)NC(=O)CNC(=O)[C@H](Cc2ccc3ccccc3c2)NC(=O)[C@H](CCCNC(=N)N)NC(=O)[C@@H]1CCCNC(=N)N [OD1, cyc[D-Tyr-(Me)Arg-Arg-Nal-Gly]]
**A:** 7.64

Now look at this one.
**Q:** State its pIC50 for this compound: CN1C(=O)[C@H](CCCNC(=N)N)NC(=O)[C@@H](Cc2ccc(O)cc2)NC(=O)CNC(=O)[C@H](Cc2ccc3ccccc3c2)NC(=O)[C@@H]1CCCNC(=N)N [OD3, cyc[D-Tyr-Arg-(Me)Arg-Nal-Gly]]
**A:** 7.51

* * *

IC50 values, listed per item
Tested Target: human CXCR4 (Homo sapiens, UniProt P61073)
Test Details: Competitive receptor binding assay on Jurkat cells with 125I-CPCR4 as tracer
Design: Jurkat cells that endogenously express the CXCR4 receptor; endogenous in cells; host or cells: Jurkat cells
Assay Setup: Table 10, dimers and monomers; read-out: IC50
Numbered stars: 1 amine (or outer) side, 2 acyl side, 3 side chain; on linkers, the order of the positions; unused ones are H or OH. Bridge positions count the residues as written; N and C are the ends. Square brackets hold non-standard residues; d marks the D form. Peptide text beside a SMILES is read from it. I, II: the chains in the order shown. * marks the point of attachment. Sebacoyl = O=C(CCCCCCCCC(=O)[*:2])[*:1]; 2Nal = N[C@@H](Cc1ccc2ccccc2c1)C(=O)O; dNMeOrn = CN[C@H](CCCN)C(=O)O; X3 = NC(=O)CCCC(=O)*
Remember to quote the unit after the number.

**Q:** Retrieve IC50 on human CXCR4 (Homo sapiens, UniProt P61073); query CN1C(=O)[C@@H](Cc2ccc(O)cc2)NC(=O)CNC(=O)[C@H](Cc2ccc3ccccc3c2)NC(=O)[C@H](CCCN=C(N)N)NC(=O)[C@H]1CCCNC(=O)CNC(=O)CC(CC(=O)NCC(=O)NCCC[C@@H]1C(=O)N[C@@H](CCCN=C(N)N)C(=O)N[C@@H](Cc2ccc3ccccc3c2)C(=O)NCC(=O)N[C@H](Cc2ccc(O)cc2)C(=O)N1C)NC(=O)CCCCCNC(=O)CN1CCN(CC(=O)O)CCN(CC(=O)O)CCN(CC(=O)O)CC1 (single isomer, unassigned)
**A:** 12.3 nM

**Q:** Retrieve IC50 on human CXCR4 (Homo sapiens, UniProt P61073); query CN1C(=O)[C@@H](Cc2ccc(O)cc2)NC(=O)CNC(=O)[C@H](Cc2ccc3ccccc3c2)NC(=O)[C@H](CCCN=C(N)N)NC(=O)[C@H]1CCCNC(=O)CCCCCCCCC(=O)NCCC[C@@H]1C(=O)N[C@@H](CCCN=C(N)N)C(=O)N[C@@H](Cc2ccc3ccccc3c2)C(=O)NCC(=O)N[C@H](Cc2ccc(O)cc2)C(=O)N1C [NMe-D-Orn n = 8] (I: cyclo([2Nal]G[dY][dNMeOrn]R) / II: cyclo([2Nal]G[dY][dNMeOrn]R); linker I:4-II:4 via Sebacoyl)
**A:** 2.26 nM

**Q:** Retrieve IC50 on human CXCR4 (Homo sapiens, UniProt P61073); query CN1C(=O)[C@@H](Cc2ccc(O)cc2)NC(=O)CNC(=O)[C@H](Cc2ccc3ccccc3c2)NC(=O)[C@H](CCCNC(=N)N)NC(=O)[C@H]1CCCNC(=O)CCCC(N)=O [Monomer + Glutaric acid monoamide] (cyclo([2Nal]G[dY][dNMeOrn](X3)R))
**A:** 66.5 nM
